# SYSTEM_NAME: CTD2* (A3G-CTD2 E259A), His-tagged (Homo sapiens, UniProt Q9HC16 191-384, P200A;L234K;N236A;C243A;P247K;E259A;F310K;Q318K;C321A;Q322A;C356A)
# Sequence (Q9HC16 191-384 P200A/L234K/N236A/C243A/P247K/E259A/F310K/Q318K/C321A/Q322A/C356A): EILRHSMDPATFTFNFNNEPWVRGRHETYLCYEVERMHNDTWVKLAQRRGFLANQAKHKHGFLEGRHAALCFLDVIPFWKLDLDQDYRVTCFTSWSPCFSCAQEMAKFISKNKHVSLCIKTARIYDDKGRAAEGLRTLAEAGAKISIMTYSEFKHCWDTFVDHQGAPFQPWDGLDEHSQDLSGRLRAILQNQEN
# PROTOCOL_DETAILS: MST; Zn2+ (20 uM ZnCl2); 20 mM Bis-Tris pH 6.5, 100 mM NaCl, 1 mM DTT, 0.002% Tween 20; ZnCl2 20 uM (MST) or 10 uM (EMSA); MST incubated at 4 C, measured at room temperature; EMSA incubated 1 h at room temperature, gel at 4 C
# CONDITION_NOTES: protein: recombinant; tags: poly-His (pET-28a), RED-tris-NTA dye
ENDPOINT_LABEL: Kd (µM)

>>> print(df.to_string())
                                    binder  recorded_measurement
0  AATCCCAAA (ssDNA) [9nt substrate ssDNA]                    55
1              AAUCCCAAA (ssRNA) [9nt RNA]                  1500
